subject of test: T1, SsoSSB wild-type (Sulfolobus solfataricus (Methods print …, UniProt Q97W73 1-148))
T1 sequence: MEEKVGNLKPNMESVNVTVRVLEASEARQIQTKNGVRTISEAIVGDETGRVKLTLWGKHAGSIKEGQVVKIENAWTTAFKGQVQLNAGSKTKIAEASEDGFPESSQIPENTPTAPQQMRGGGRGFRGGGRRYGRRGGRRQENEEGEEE
method summary: tryptophan fluorescence quenching; Hill model; 50 mM Tris-HCl pH 7.6, 10 mM KCl, 5% glycerol, 0.1 mg/ml BSA, 5-50 nM DNA, 20 C (PIFE also 65 C)
condition info: protein: recombinant; chain copies: 2; single strand
endpoint label: pKd
Keep it numeric: pKd is minus log10 of the concentration in mol/L.

Prompt line: Requested field: pKd. Item: TTTTTT (ssDNA) [dT6]
Response line: 6.84
